# Study Target: T1, human TSLP (human, UniProt Q969D9 29-159)
# T1 construct: also called hTSLP; rhTSLP
# Assay Summary: SPR
# key: entry, value: Kd
Report as a plain number; the unit nM is understood.

Consider the binder shown here: BDG38.127 (antibody, V domains shown, IgG1) VH: QMQLVESGGGVVQPGRSLTLSCAASGFEFRTYGMHWVRQAPGKGLEWVGVIWYDGSATHYADSVKGRFTITRDNSKNTLNLQMNSLRAEDTAVYYCARAPQWYLTAEAFDLWGQGTMVTVSS VL: SYILTQPPSVSVAPGETATITCGGNLIGAKLVHWYQQKPGQAPVLVIYDDSDRPSRIPERFSGSNIGNTATLTISDVEAGDEADYYCQVWDYYSDTYVFGGGTKLTVL What is its recorded Kd?
0.991

Consider the binder shown here: BDG38.129 (antibody, V domains shown, IgG1) VH: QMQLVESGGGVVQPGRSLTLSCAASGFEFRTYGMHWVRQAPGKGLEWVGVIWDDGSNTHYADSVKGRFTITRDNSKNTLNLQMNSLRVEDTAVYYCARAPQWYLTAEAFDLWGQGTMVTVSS VL: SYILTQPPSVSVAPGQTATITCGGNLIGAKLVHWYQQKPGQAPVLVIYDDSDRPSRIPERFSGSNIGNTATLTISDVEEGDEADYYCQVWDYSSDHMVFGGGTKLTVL What is its recorded Kd?
0.0226

// next entry
Consider the binder shown here: BDG38.139 (antibody, V domains shown, IgG1) VH: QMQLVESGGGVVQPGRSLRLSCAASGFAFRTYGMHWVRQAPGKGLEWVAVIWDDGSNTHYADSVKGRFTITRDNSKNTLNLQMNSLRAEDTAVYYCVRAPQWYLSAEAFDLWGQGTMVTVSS VL: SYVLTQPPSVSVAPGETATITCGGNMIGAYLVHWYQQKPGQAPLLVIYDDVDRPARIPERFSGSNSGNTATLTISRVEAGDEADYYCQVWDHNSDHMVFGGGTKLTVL What is its recorded Kd?
0.00327
